molecular target: human M1 receptor (hCHRM1) (Homo sapiens, UniProt P11229); construct: expressed in transfected cells; host or cells: CHO-K1; experiment: Measurement of M1 receptor positive allosteric modulator (M1PAM) activity, calcium fluorescence (FLIPRtetra) in CHO-K1 cells in the presence of acetylcholine at EC20; format: cell-based; details: test compound 10 μM, in the presence of acetylcholine at EC20 (final 0.6 nM), CHO-K1 cells expressing hCHRM1
Sequence (P11229 whole entry): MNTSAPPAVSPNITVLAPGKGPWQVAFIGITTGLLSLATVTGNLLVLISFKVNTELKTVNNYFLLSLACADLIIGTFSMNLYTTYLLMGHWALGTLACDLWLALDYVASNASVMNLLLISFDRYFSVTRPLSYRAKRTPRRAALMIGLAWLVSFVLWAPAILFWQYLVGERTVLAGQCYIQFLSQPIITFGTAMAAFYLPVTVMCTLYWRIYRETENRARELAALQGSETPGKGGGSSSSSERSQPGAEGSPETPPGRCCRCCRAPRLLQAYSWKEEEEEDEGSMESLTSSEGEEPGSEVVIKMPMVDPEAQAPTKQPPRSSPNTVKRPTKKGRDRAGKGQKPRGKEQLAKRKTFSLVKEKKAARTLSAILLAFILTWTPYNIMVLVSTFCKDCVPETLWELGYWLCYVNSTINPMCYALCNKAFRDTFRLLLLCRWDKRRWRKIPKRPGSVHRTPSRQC
Assay Metric: activity (%) at 10 μM
Return type: number; implicit unit %.

Q. Identify the measured activity (%) at 10 μM of Cn1cc(-c2ccc(CN3Cc4cccc(O[C@H]5CCCCC[C@@H]5O)c4C3=O)cc2)cn1 (relative stereo) for human M1 receptor (hCHRM1) (Homo sapiens, UniProt P11229).
A. 104

Q. Same again, this time with "Cn1ccc(-c2ccc(CN3Cc4ncnc(Oc5c(F)cc(F)cc5F)c4C3=O)cc2)n1"
A. 104

Q. Same again, this time with "Cc1cc(-c2ccc(CN3Cc4cccc(Oc5c(F)cc(C#N)cc5F)c4C3=O)cc2)cnn1"
A. 99

Q. Same again, this time with Cc1ccn(-c2ccc(CN3Cc4cccc(O[C@H]5CCCC[C@@H]5O)c4C3=O)cc2)n1 (relative stereo)
A. 110
